The values you see were collected from patent EP4814018A2.

Molecular target: T1, human transferrin receptor (human, UniProt P02786 89-760)
T1 construct: also called huTfR; hTfR
T1 sequence (P02786 89-760 limits assumed): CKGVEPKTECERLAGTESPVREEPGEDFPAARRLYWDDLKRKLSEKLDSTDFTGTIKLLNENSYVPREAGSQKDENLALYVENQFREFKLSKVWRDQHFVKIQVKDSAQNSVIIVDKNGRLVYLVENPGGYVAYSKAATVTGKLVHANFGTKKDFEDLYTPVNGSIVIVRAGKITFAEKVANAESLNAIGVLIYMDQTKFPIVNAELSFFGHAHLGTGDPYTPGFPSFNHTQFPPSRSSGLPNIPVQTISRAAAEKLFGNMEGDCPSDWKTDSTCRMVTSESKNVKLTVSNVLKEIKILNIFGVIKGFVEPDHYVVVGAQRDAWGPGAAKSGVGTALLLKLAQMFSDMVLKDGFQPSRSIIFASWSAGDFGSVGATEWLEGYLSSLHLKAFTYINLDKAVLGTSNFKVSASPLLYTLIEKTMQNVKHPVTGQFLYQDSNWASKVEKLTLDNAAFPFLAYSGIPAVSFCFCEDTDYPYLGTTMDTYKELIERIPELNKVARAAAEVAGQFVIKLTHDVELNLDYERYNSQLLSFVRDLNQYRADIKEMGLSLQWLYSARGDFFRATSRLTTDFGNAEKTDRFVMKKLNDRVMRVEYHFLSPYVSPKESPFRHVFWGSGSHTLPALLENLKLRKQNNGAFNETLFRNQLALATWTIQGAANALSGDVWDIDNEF
Assay: SPR off-rate
metric: koff

# input // Input: clone 494 VH 4 / VL 3 (antibody, V domains shown) VH: QVQLVQSGAEVKKPGSSVKVSCKASGFNIKDTYIHWVIQAPGQGLEWMGRIDPANGDTKSDPKFQGRVTITADESTSTAYMELSSLRSEDTAVYYCVRDYLYPYYFDFWGQGTTVTVSS VL: EIVLTQSPGTLSLSPGERATLSCRASESVDTYVSWYQQKPGQAPRLLIYGASNRYTGVPDRFSGSGSGTDFTLTISRLEPEDFADYYCGQTYNYPLTFGQGTKLEI . Output its koff only.
# output 0.000452 s⁻¹

# input Consider the binder clone 494 VH 2 / VL 3 (antibody, V domains shown) VH: QVQLVQSGAEVKKPGASVKVSCKASGFNIKDTYIHWVIQAPGQGLEWMGRIDPANGDTKSAPKFQVRVTITADTSTSTVYMELSSLRSEDTAVYYCVRDYLYPYYFDFWGQGTTVTVSS VL: EIVLTQSPGTLSLSPGERATLSCRASESVDTYVSWYQQKPGQAPRLLIYGASNRYTGVPDRFSGSGSGTDFTLTISRLEPEDFADYYCGQTYNYPLTFGQGTKLEI and give its recorded koff.
# output 0.00043 s⁻¹

# input Given the binder clone 494 VH 3 / VL 0 (mu) (antibody, V domains shown) VH: QVQLVQSGAEVKKPGASVKVSCKASGFNIKDTYIHWVIQAPGQGLEWMGRIDPANGDTKSDPKFQGRVTITADTSTSTVYMELSSLRSEDTAVYYCVRDYLYPYYFDFWGQGTTVTVSS VL: KIVMTQSPKSMSMSVGERVTLNCRASESVDTYVSWYQQKPEQSPELLIYGASNRYTGVPDRFTGSGSATDFTLTISSVQAEDLADYYCGQTYNYPLTFGAGTKLELKR , write its reported koff.
# output 0.000148 s⁻¹

# input Return the recorded koff value; entry: clone 494 VH 3 / VL 2 (antibody, V domains shown) VH: QVQLVQSGAEVKKPGASVKVSCKASGFNIKDTYIHWVIQAPGQGLEWMGRIDPANGDTKSDPKFQGRVTITADTSTSTVYMELSSLRSEDTAVYYCVRDYLYPYYFDFWGQGTTVTVSS VL: KIVLTQSPGTLSLSPGERATLSCRASESVDTYVSWYQQKPGQAPRLLIYGASNRYTGVPDRFSGSGSGTDFTLTISRLEPEDFADYYCGQTYNYPLTFGQGTKLEI
# output 0.000415 s⁻¹

# input For the binder clone 494 VH 0 (mu) / VL 3 (antibody, V domains shown) VH: EVQLQQSGAVLVKPGASVKLSCPASGFNIKDTYIHWVIQRPEQGLEWIGRIDPANGDTKCDPKFQVKATITADTSSNTAYLQLSSLTSEDTAVYFCVRDYLYPYYFDFWGQGTTLTVSS VL: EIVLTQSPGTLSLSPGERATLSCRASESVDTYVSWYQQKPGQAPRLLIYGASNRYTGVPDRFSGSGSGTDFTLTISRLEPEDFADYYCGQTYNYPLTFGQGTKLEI , give its reported koff.
# output 0.000339 s⁻¹
